# testTarget: P2X4 (Homo sapiens)
# Sequence (Q99571 whole entry): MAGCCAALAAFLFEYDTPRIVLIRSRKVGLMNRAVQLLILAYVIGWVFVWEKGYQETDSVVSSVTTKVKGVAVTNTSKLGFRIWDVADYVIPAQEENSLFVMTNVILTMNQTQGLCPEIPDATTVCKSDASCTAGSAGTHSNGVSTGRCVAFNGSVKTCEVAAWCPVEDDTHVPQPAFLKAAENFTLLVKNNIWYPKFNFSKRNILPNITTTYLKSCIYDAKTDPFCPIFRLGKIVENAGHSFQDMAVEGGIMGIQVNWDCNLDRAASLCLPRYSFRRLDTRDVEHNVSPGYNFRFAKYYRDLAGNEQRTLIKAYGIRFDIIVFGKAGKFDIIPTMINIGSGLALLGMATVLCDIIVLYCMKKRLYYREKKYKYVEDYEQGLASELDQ
# assaySummary: Assay A: human P2X4 receptor cell line, FLIPR calcium assay (Fluo-8, agonist Bz-ATP at EC80)
# Assay type: cell-based
# Parameters: host or cells: HEK 293 (recombinant, constitutively expressing; with mitochondrial photina in Assay B)
# conditionParameters: percentage of maximal inhibition; HEK human P2X4 cells, Fluo-8 FLIPR; read-out: human P2X4 Assay A avg Efficacy
attributeMeasured: Emax (%)

Below are worked cases with known answers.
compound | unitsSymbol | experimentalValue
NS(=O)(=O)c1cc(NC(=O)Cc2ccccc2Cl)ccc1Oc1ccccc1 | % | 85
NS(=O)(=O)c1cc(NC(=O)Cc2ccccc2Br)ccc1Oc1cccc(Cl)c1 | % | 75
NS(=O)(=O)c1cc(NC(=O)Cc2c(Cl)ccc3c2CCO3)ccc1Oc1cccc(Cl)c1 | % | 82
NS(=O)(=O)c1cc(NC(=O)Cc2ccccc2Cl)ccc1OCC1CCCOC1 (stereo not shown) | % | 59

P. NS(=O)(=O)c1cc(NC(=O)Cc2ccccc2Cl)ccc1Oc1ccc(C(F)(F)F)nc1
Q. NS(=O)(=O)c1cc(NC(=O)Cc2ccccc2Cl)ccc1Oc1ccc(-n2ccnc2)cc1
Query: I'd appreciate it if you could identify which of P and Q has the greater Emax. Label of pick, please.
Response: Q
